assay_explanation: Acute toxicity in mice (LD50)
Type: in vivo
experimental_conditions: mouse, in vivo, ip; mice, i.p.; death rate 7 days after administration; read-out: Mice LD50 i.p.
Structures can show the parent of a compound that is named as a salt.

>  <compound>
CCN(CCCOC(=O)c1cccc2c(=O)c(C)c(-c3ccccc3)oc12)C(C)Cc1ccc(OC)cc1.Cl (stereo not drawn)

>  <units>
mg/kg

>  <bound_type>
>

>  <LD50 at 168 h>
1000

$$$$
>  <compound>
COc1ccc(C(C#N)(CCCN(C)CCCNC(=O)c2cccc3c(=O)c(C)c(-c4ccccc4)oc23)C(C)C)cc1OC (stereo not drawn) [Example 11, hydrochloride hemihydrate]

>  <units>
mg/kg

>  <bound_type>
=

>  <LD50 at 168 h>
224

$$$$
>  <compound>
COc1ccc(C(C#N)(CCCN(C)CCOCc2cccc3c(=O)c(C)c(-c4ccccc4)oc23)C(C)C)cc1OC.Cl.O (stereo not drawn)

>  <units>
mg/kg

>  <bound_type>
=

>  <LD50 at 168 h>
334

$$$$
>  <compound>
COc1ccc(C(C#N)(CCCN(C)CC(=O)NCc2cccc3c(=O)c(C)c(-c4ccccc4)oc23)C(C)C)cc1OC.Cl.O.O (stereo not drawn)

>  <units>
mg/kg

>  <bound_type>
=

>  <LD50 at 168 h>
440

$$$$
>  <compound>
COc1ccc(C(C#N)(CCCN(C)CC(=O)N(C)Cc2cccc3c(=O)c(C)c(-c4ccccc4)oc23)C(C)C)cc1OC.Cl.O (stereo not drawn)

>  <units>
mg/kg

>  <bound_type>
=

>  <LD50 at 168 h>
334

$$$$
>  <compound>
COc1ccc(C(C#N)(CCCN(C)CCSCc2cccc3c(=O)c(C)c(-c4ccccc4)oc23)C(C)C)cc1OC.Cl (stereo not drawn)

>  <units>
mg/kg

>  <bound_type>
>

>  <LD50 at 168 h>
1000

$$$$
